- System: FGFR3-TACC3_v2 (N-FLAG) fusion polypeptide
- Protocol text: In vitro kinase activity inhibition (HTRF KinEASE-TK)
- Format: biochemical, human
- Condition parameters: 1 nM, 100 μM ATP
Reported rate of inhibiting kinase activity v2 values for a set of compounds
Supply the numeric figure in %, leaving out any unit text.

INSERT INTO measurements (compound, unit_abbreviation, reported) VALUES
  ('COc1cc(OC)c(F)c(COc2cnc(Nc3ccc(N4CCN(C)CC4)cc3)nc2)c1F [Example 122]', '%', 27),
  ('COc1cc(OC)c(F)c(COc2cnc(Nc3cnn(C[C@@H](O)CO)c3)nc2)c1F [Example 116]', '%', 22),
  ('COc1cc(OC)c(F)c(COc2cnc(Nc3ccc(N4CCC(NCCO)CC4)cc3)nc2)c1F [Example 299]', '%', 20);

Consider the record given below.
Query (compound): COc1cc(OC)c(F)c(COc2cnc(Nc3cc(CN4CCN(C)CC4)n(C)n3)nc2)c1F [Example 248] ; field requested: rate of inhibiting kinase activity v2
6
